# target of assay: T1, EsCas13d, nuclease-dead (Eubacterium siraeum, UniProt B0MS50, R295A;H300A;R849A;H854A)
# T1 sequence: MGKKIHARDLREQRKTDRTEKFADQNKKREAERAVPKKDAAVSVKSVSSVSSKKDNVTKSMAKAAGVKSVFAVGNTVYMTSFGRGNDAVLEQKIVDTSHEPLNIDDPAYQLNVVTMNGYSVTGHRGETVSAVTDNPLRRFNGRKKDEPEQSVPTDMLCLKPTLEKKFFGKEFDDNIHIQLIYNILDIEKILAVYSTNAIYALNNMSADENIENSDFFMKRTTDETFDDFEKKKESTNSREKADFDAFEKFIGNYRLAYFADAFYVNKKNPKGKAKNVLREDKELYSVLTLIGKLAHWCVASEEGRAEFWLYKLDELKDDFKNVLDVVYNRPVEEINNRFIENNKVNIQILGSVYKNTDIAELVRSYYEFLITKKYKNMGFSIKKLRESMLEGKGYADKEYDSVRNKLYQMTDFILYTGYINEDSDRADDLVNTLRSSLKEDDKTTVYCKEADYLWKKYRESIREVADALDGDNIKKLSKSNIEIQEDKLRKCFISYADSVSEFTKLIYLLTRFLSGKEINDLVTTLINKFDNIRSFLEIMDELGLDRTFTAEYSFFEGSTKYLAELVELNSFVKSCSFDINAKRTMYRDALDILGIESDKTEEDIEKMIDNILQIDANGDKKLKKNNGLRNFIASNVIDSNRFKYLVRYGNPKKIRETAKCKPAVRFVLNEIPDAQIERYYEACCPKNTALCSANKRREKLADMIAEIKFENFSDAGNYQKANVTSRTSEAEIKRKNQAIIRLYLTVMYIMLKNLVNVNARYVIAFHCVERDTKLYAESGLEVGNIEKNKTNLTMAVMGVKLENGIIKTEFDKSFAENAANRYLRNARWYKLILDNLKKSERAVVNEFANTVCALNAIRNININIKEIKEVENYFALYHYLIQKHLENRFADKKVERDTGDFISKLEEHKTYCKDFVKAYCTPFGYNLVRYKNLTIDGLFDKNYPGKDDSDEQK
# assay protocol: crRNA (strand 1, pre-loaded); Mg2+; 40 mM Tris-HCl pH 7.5, 150 mM NaCl, 6 mM MgCl2, 1 mM DTT, 0.1% Tween-20, 0.2 mg/ml BSA; 25 C; 10 min per concentration, then washed
# details: tags: His6-TwinStrep-SUMO cleaved; N-terminal SNAP kept (SNAP-Surface 488); label: 3' end held by stalled T7 RNA polymerase
readout name: pKd
On this scale, pKd is minus log10 of a concentration expressed in M (mol/L).

Prompt line: Endpoint output: pKd of target 1 G12U (mixed) RNA 1: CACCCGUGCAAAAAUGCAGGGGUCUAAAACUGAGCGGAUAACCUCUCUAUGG RNA 2: GGGAAUGGAUCCACAUCUACGAAUUCGUACCAUAGAGAGUUUAUCCGCUCACCGAGAUCGGAAGAGCACACGU . Value?
Response line: 7.99

Prompt line: Repeat for the following binder: target 1 insU 3' of 7,insU 3' of 6 (mixed) RNA 1: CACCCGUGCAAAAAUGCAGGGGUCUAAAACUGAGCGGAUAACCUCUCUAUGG RNA 2: GGGAAUGGAUCCACAUCUACGAAUUCGUACCAUAGAGAGGUUAUCUCUGCUCACCGAGAUCGGAAGAGCACACGU
Response line: 7.26

Prompt line: Repeat for the following binder: target 2 MT 5'PFS CUC 3'PFS AGC (mixed) RNA 1: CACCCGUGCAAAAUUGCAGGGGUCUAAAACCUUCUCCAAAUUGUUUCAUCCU RNA 2: GGGAAUGGAUCCACAUCUACGAAUUCCUCAGGAUGAAACAAUUUGGAGAAGAGCAGAUCGGAAGAGCACACGU
Response line: 8.70

Prompt line: Repeat for the following binder: target 1 insC 3' of 13,insA 3' of 11 (mixed) RNA 1: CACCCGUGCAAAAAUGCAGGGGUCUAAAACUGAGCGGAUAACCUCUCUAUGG RNA 2: GGGAAUGGAUCCACAUCUACGAAUUCGUACCAUAGAGAGCGUAUAUCCGCUCACCGAGAUCGGAAGAGCACACGU
Response line: 7.72

Prompt line: Repeat for the following binder: target 1 MT 5'PFS UAA 3'PFS CUG (mixed) RNA 1: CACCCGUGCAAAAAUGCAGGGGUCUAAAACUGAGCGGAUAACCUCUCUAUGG RNA 2: GGGAAUGGAUCCACAUCUACGAAUUCUAACCAUAGAGAGGUUAUCCGCUCACUGAGAUCGGAAGAGCACACGU
Response line: 7.59

Prompt line: Repeat for the following binder: target 1 insU 3' of 22,insA 3' of 2 (mixed) RNA 1: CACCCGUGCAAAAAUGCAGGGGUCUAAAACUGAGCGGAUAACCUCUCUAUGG RNA 2: GGGAAUGGAUCCACAUCUACGAAUUCGUACUCAUAGAGAGGUUAUCCGCUCAACCGAGAUCGGAAGAGCACACGU
Response line: 7.47

Prompt line: Repeat for the following binder: target 2 MT 5'PFS CGC 3'PFS CUA (mixed) RNA 1: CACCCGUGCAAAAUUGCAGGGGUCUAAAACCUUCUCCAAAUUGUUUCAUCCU RNA 2: GGGAAUGGAUCCACAUCUACGAAUUCCGCAGGAUGAAACAAUUUGGAGAAGCUAAGAUCGGAAGAGCACACGU
Response line: 8.13

Prompt line: Repeat for the following binder: target 2 MT 5'PFS UAU 3'PFS AGG (mixed) RNA 1: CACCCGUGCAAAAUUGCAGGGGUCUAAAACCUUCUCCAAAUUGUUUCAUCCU RNA 2: GGGAAUGGAUCCACAUCUACGAAUUCUAUAGGAUGAAACAAUUUGGAGAAGAGGAGAUCGGAAGAGCACACGU
Response line: 7.55

Prompt line: Repeat for the following binder: target 1 MT 5'PFS GAA 3'PFS UCA (mixed) RNA 1: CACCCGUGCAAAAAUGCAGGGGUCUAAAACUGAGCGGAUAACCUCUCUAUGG RNA 2: GGGAAUGGAUCCACAUCUACGAAUUCGAACCAUAGAGAGGUUAUCCGCUCAUCAAGAUCGGAAGAGCACACGU
Response line: 7.54
